The following molecules were reported with Ki values on Serine protease 1 (Bos taurus) in different studies.
Sequence (P00760 whole entry): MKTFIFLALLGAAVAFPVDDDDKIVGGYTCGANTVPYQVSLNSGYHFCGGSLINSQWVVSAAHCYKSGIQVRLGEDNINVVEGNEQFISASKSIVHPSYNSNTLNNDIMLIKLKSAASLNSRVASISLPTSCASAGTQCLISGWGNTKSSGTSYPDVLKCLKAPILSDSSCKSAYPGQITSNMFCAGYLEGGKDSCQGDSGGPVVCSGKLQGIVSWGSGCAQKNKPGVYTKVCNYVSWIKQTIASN
observation type: Ki (µM)

molecule=CCOC(=O)N[C@@H](CCCCN)C(=O)c1noc(Cc2ccc(C(=O)NC3Cc4ccccc4C3)cc2)n1 experimental_result=0.17

a. CCOC(=O)N1CCN(C(=O)C(Cc2cccc(C(=N)N)c2)NS(=O)(=O)c2c(C(C)C)cc(C(C)C)cc2C(C)C)CC1 (stereo not drawn)
b. CCS(=O)(=O)N[C@H](Cc1ccccc1)C(=O)N1CCC[C@H]1C(=O)N[C@@H](C(=O)c1nc2ccccc2s1)C1CCC(N)CC1 (stereo partly drawn)
c. COc1ccc(-c2ccc(C(=O)N[C@H](CO)C(C)(C)C)cc2C(=O)O)c(C(=O)Nc2ccc(C(=N)N)cc2)n1
Could you please order the items by Ki, going from the lowest number to the highest? Your task in answering is to list the labels in the requested order.
a, b, c
(a: 0.037 µM, b: 0.087 µM, c: 0.24 µM)
